Here the recorded EC50 (nM) GluR, cAMP formation is given for each entry.
molecular target: human glucagon receptor (glucagon-R) (human, UniProt P47871); assay: cell-based or functional assay
Starred links: 1 amine or outer side, 2 acyl side, 3 side chain; linkers in the order of their positions; H or OH if unused. Non-standard residues stand in square brackets, D forms with d. Groups on a side chain read outwards from the residue. *: point of attachment. γGlu = O=C(O)[C@H](CCC(=O)[*:2])N[*:1]; Palmitoyl = CCCCCCCCCCCCCCCC(=O)*; hSer = N[C@@H](CCO)C(=O)O; Aib = CC(C)(N)C(=O)O
Answer format: numeric, nM implied, no suffix.

# count of solved cases: 4
INSERT INTO results (binder, experimental_result) VALUES
  ('H-H[Aib][3‑(4-thiazolyl)alanyl]GTFTSDYSKYLDSK([γGlu-Palmitoyl])AAHDFVEWLLSA-NH2 [Compound 23]', 0.99),
  ('H-H[Aib][hSer]GTFTSDYSKYLDSK([γGlu-Palmitoyl])AAHDFVEWLLSA-NH2 [Compound 29]', 0.79),
  ('H-H[Aib][3‑(1,2,4-triazol-1-yl)alanyl]GTFTSDYSKYLDSK([γGlu-Palmitoyl])AAHDFVEWLLSA-NH2 [Compound 25]', 0.71),
  ('H-H[Aib][3‑(2-thienyl)alanyl]GTFTSDYSKYLDSK([γGlu-Palmitoyl])AAHDFVEWLLSA-NH2 [Compound 26]', 1.16);

Proceeding to the next binder to report its EC50 (nM) GluR, cAMP formation.
Lab note: H-H[Aib][3‑(2-furyl)alanyl]GTFTSDYSKYLDSK([γGlu-Palmitoyl])AAHDFVEWLLSA-NH2 [Compound 22] gave EC50 (nM) GluR, cAMP formation of 3.8

Values compiled from patent US20130157929A1.
